Entry source: patent US9181227B2

# Test system: Vero cells
# METHOD_DESCRIPTION: Cellular toxicity assay, Vero cells
# Format: cell-based
# RUN_PARAMETERS: cytotoxicity IC50, Vero cells

TEST_SMILES	Toxicities VERO
COC(=O)N[C@H](C(=O)N1C[C@H](n2cc([Si](C)(C)C)nn2)C[C@H]1c1ncc(-c2ccc(-c3ccc(-c4cnc([C@@H]5C[C@@H](n6cc([Si](C)(C)C)nn6)CN5C(=O)[C@@H](NC(=O)OC)C(C)C)[nH]4)cc3)cc2)[nH]1)C(C)C	> 100 µM
COC(=O)N[C@H](C(=O)N1C[C@@H](SC)C[C@H]1c1ncc(-c2ccc(-c3ccc(-c4cnc([C@@H]5C[C@H](SC)CN5C(=O)[C@@H](NC(=O)OC)C(C)C)[nH]4)cc3)cc2)[nH]1)C(C)C	10.9 µM
COC(=O)N[C@H](C(=O)N1C[C@H](n2cc(-c3ccccc3)nn2)C[C@H]1c1ncc(-c2ccc(-c3ccc(-c4cnc([C@@H]5C[C@@H](n6cc(-c7ccccc7)nn6)CN5C(=O)[C@@H](NC(=O)OC)C(C)C)[nH]4)cc3)cc2)[nH]1)C(C)C	> 100 µM
COC(=O)N[C@H](C(=O)N1C[C@H](n2ccnn2)C[C@H]1c1ncc(-c2ccc(-c3ccc(-c4cnc([C@@H]5C[C@@H](n6cc([Si](C)(C)C)nn6)CN5C(=O)[C@@H](NC(=O)OC)C(C)C)[nH]4)cc3)cc2)[nH]1)C(C)C	> 100 µM
